Values from patent US10300155B2

Items are presented alongside their recorded Biodistribution: Muscle.
experiment: Biodistribution in male Balb/C mice; assay type: in vivo; settings: 30 min post injection, tail vein; mean ± SD, n = 4
measurement.label: Biodistribution: Muscle

[[record]]
compound = "COc1ccc(NC(=O)c2ccc(/C=C/c3ccncc3)cc2)cc1 [[^11C]TZ-20-83]"
endpoint_result = "1.17 ± 0.23 % ID/g"

[[record]]
compound = "COC(=O)c1ccc(/C=C/c2ccncc2)cc1 [[^11C]TZ-20-35]"
endpoint_result = "2.25 ± 0.33 % ID/g"

[[record]]
compound = "O=C(Nc1ccc(OCC[18F])cc1)c1ccc(/C=C/c2ccncc2)cc1 [[^18F]TZ-23-88]"
endpoint_result = "1.35 ± 0.04 % ID/g"

[[record]]
compound = "O=C(Nc1ccc(OCCC[18F])cc1)c1ccc(/C=C/c2ccncc2)cc1 [[^18F]TZ-23-92]"
endpoint_result = "1.30 ± 0.16 % ID/g"


---

Items are presented alongside their recorded Biodistribution: Fat.
test: Biodistribution in male Balb/C mice; type: in vivo; settings: 60 min post injection, tail vein; mean ± SD, n = 4
measurement.label: Biodistribution: Fat

[[record]]
compound = "O=C(Nc1ccc(OCC[18F])cc1)c1ccc(/C=C/c2ccncc2)cc1 [[^18F]TZ-23-88]"
endpoint_result = "0.69 ± 0.10 % ID/g"

[[record]]
compound = "COc1ccc(NC(=O)c2ccc(/C=C/c3ccncc3)cc2)cc1 [[^11C]TZ-20-83]"
endpoint_result = "1.05 ± 0.22 % ID/g"

[[record]]
compound = "COC(=O)c1ccc(/C=C/c2ccncc2)cc1 [[^11C]TZ-20-35]"
endpoint_result = "0.58 ± 0.09 % ID/g"

[[record]]
compound = "O=C(Nc1ccc(OCCC[18F])cc1)c1ccc(/C=C/c2ccncc2)cc1 [[^18F]TZ-23-92]"
endpoint_result = "0.58 ± 0.13 % ID/g"


---

Items are presented alongside their recorded Ki.
biological target: α-synuclein fibrils (Homo sapiens); construct: made in house; host or cells: E. coli BL21(DE3)RIL; test: ThT competitive assay for α-synuclein fibrils (Table 1); assay type: binding; details: average; read-out: Ki (nM) α-syn (avg)
measurement.label: Ki

[[record]]
cpd_smiles = "O=[N+]([O-])c1ccc(/C=C/c2cccs2)cc1"
endpoint_result = "55 nM"

[[record]]
cpd_smiles = "COC(=O)c1ccc(/C=C/c2ccncc2)cc1"
endpoint_result = "16.1 nM"

[[record]]
cpd_smiles = "C(=C\\c1cccs1)/c1ccncc1"
endpoint_result = "604 nM"

[[record]]
cpd_smiles = "COc1ccc(/C=C/c2ccc(-c3cccs3)s2)cc1"
endpoint_result = "450 nM"

[[record]]
cpd_smiles = "COc1ccc(/C=C/c2cccs2)cc1"
endpoint_result = "176 nM"

[[record]]
cpd_smiles = "COc1ccc2nc(/C=C/c3ccncc3)ccc2c1"
endpoint_result = "29.1 nM"


---

assay: Biodistribution in male Balb/C mice; type: in vivo; conditions: 60 min post injection, tail vein; mean ± SD, n = 4
Items are presented alongside their recorded Biodistribution: Blood.
measurement.label: Biodistribution: Blood

[[record]]
compound = "O=C(Nc1ccc(OCCC[18F])cc1)c1ccc(/C=C/c2ccncc2)cc1 [[^18F]TZ-23-92]"
measurement_label = "Biodistribution: Blood"
endpoint_result = "0.84 ± 0.05 % ID/g"

[[record]]
compound = "COc1ccc(NC(=O)c2ccc(/C=C/c3ccncc3)cc2)cc1 [[^11C]TZ-20-83]"
measurement_label = "Biodistribution: Blood"
endpoint_result = "1.56 ± 0.12 % ID/g"

[[record]]
compound = "COC(=O)c1ccc(/C=C/c2ccncc2)cc1 [[^11C]TZ-20-35]"
measurement_label = "Biodistribution: Blood"
endpoint_result = "1.75 ± 0.25 % ID/g"

[[record]]
compound = "O=C(Nc1ccc(OCC[18F])cc1)c1ccc(/C=C/c2ccncc2)cc1 [[^18F]TZ-23-88]"
measurement_label = "Biodistribution: Blood"
endpoint_result = "1.28 ± 0.06 % ID/g"

